Values from ChEMBL document CHEMBL3612013

Hi there, I'd appreciate the recorded solubility at 48 h for every entry that follows.
Test: Aqueous solubility in pH 7.4 PBS in presence of hydroxypropyl-beta cyclodextrin incubated for 48 hrs at 25 degC by spectrophotometry
Assay type: physicochemical
Conditions: PBS with hydroxypropyl-beta cyclodextrin
Record the value in µg/mL, omitting the unit from your answer.

[in] solubility at 48 h lookup needed for Cc1ccc(S(=O)(=O)NC(=O)NCCc2ccc(S(N)(=O)=O)cc2)cc1 , thanks.
[out] 212

[in] Then this compound: NS(=O)(=O)c1ccc(CCNC(=O)NS(=O)(=O)c2ccc(F)cc2)cc1
[out] 2170

----------
Hi there, I'd appreciate the recorded solubility at 48 h for every entry that follows.
Test: Aqueous solubility in pH 7.4 PBS in presence of hydroxypropyl-alpha cyclodextrin incubated for 48 hrs at 25 degC by spectrophotometry
Assay type: physicochemical
Details: PBS with hydroxypropyl-alpha cyclodextrin
Record the value in µg/mL, omitting the unit from your answer.

[in] solubility at 48 h lookup needed for NS(=O)(=O)c1ccc(CCNC(=O)NS(=O)(=O)c2ccc(F)cc2)cc1 , thanks.
[out] 1580

[in] Then this molecule: Cc1ccc(S(=O)(=O)NC(=O)NCCc2ccc(S(N)(=O)=O)cc2)cc1
[out] 141
